All values here come from ChEMBL document CHEMBL4411312.

- PROTOCOL: Cytotoxicity against rat L6 cels assessed as reduction in cell viability after 72 hrs by Alamar Blue dye-based fluorometric analysis
- CONDITION_SUMMARY: L6 cells
CC50 at 72 h strictly under 10 µM means Y; at 10 µM or over means N.

>>> qualitative_label("Clc1ccc(C(c2c[nH]cc2-c2ccc(Cl)cc2-c2ccccc2)n2ccnc2)c(Cl)c1 (stereo not given)")
"N"
>>> qualitative_label("CCN(CC)CCCC(C)Nc1ccnc2cc(Cl)ccc12 (stereo not given)")
"N"
>>> qualitative_label("O=[N+]([O-])c1ccc(C(c2ccn(-c3ccc([N+](=O)[O-])cc3)c2)n2ccnc2)cc1 (stereo not given)")
"N"
>>> qualitative_label("CCc1ccc(-c2c[nH]cc2C(c2ccc(Cl)cc2Cl)n2ccnc2)cc1 (stereo not given)")
"N"
>>> qualitative_label("Clc1ccc(C(c2c[nH]cc2-c2ccc(Cl)c3ccccc23)n2ccnc2)c(Cl)c1 (stereo not given)")
"Y"
>>> qualitative_label("Nc1nc(N)nc(Nc2ccc([As]3SCC(CO)S3)cc2)n1 (stereo not given)")
"N"
>>> qualitative_label("Cc1ccc(-c2c[nH]cc2C(c2ccc(Cl)cc2Cl)n2ccnc2)cc1 (stereo not given)")
"N"
>>> qualitative_label("CC(C)c1ccc(-c2c[nH]cc2C(c2ccc(Cl)cc2Cl)n2ccnc2)cc1 (stereo not given)")
"N"
>>> qualitative_label("COc1ccc(-c2c[nH]cc2C(c2ccc(Cl)cc2Cl)n2ccnc2)cc1 (stereo not given)")
"N"
>>> qualitative_label("CCCCCCCCCCCCCCCCOP(=O)([O-])OCC[N+](C)(C)C")
"N"
>>> qualitative_label("Clc1ccc(-c2cc(C(c3ccc(Cl)cc3)n3ccnc3)c[nH]2)cc1 (stereo not given)")
"Y"
>>> qualitative_label("N#Cc1ccc(C(c2ccn(-c3ccc(C#N)cc3)c2)n2ccnc2)cc1 (stereo not given)")
"N"
>>> qualitative_label("Clc1ccc(C(c2c[nH]cc2-c2ccc(Cl)cc2-n2cccc2)n2ccnc2)c(Cl)c1 (stereo not given)")
"Y"
>>> qualitative_label("C[C@@H]1CC[C@H]2[C@@H](C)C(=O)O[C@@H]3O[C@@]4(C)CC[C@@H]1[C@]32OO4")
"N"
>>> qualitative_label("N#Cc1ccc(C(c2ccn(-c3ccc(Cl)cc3)c2)n2ccnc2)cc1 (stereo not given)")
"N"
>>> qualitative_label("FC(F)(F)c1ccc(-n2ccc(C(c3ccc(Cl)cc3)n3ccnc3)c2)cc1 (stereo not given)")
"N"
>>> qualitative_label("Clc1ccc(-c2c[nH]cc2[C@@H](c2ccc(Cl)cc2Cl)n2ccnc2)cc1")
"Y"
>>> qualitative_label("Clc1ccc(-c2c[nH]cc2[C@H](c2ccc(Cl)cc2Cl)n2ccnc2)cc1")
"Y"
>>> qualitative_label("Cn1cc(C(c2ccc(Cl)cc2)n2ccnc2)cc1-c1ccc(Cl)cc1 (stereo not given)")
"N"
>>> qualitative_label("O=C(Cn1ccnc1[N+](=O)[O-])NCc1ccccc1")
"N"

====

- SYSTEM_TESTED: CYP1A2 (Homo sapiens)
- Sequence (P05177 whole entry): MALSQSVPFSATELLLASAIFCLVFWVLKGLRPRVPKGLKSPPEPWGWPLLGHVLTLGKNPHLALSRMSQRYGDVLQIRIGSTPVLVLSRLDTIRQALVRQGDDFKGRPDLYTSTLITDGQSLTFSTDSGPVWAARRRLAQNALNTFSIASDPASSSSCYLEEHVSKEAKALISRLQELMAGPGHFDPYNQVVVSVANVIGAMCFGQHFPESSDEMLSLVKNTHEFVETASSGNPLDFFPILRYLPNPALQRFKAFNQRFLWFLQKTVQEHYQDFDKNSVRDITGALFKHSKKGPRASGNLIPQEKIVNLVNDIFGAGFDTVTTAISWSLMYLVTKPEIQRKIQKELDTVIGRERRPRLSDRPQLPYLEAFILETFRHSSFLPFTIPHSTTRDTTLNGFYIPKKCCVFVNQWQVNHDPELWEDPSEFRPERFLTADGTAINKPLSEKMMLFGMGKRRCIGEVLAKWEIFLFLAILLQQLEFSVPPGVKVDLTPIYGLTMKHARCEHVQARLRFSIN
- PROTOCOL: Safety index, ratio of IC50 for test compound to IC50 for furafylline for inhibition of human CYP1A2 in presence of NADPH by luciferase reporter gene assay
- Type: ADME
- CONDITION_SUMMARY: read-out: Ratio IC50
QUANTITY_MEASURED: selectivity ratio

>>> test_result("Clc1ccc(-c2c[nH]cc2C(c2ccc(Cl)cc2Cl)n2ccnc2)cc1 (racemic)")
3

====

Reported selectivity ratio is given for each of the following compounds.
- PROTOCOL: Selectivity index, ratio of CC50 for rat L6 cels to IC50 for Leishmania donovani MHOM/ET/67/L82 axenic amastigote
- Type: toxicity
- CONDITION_SUMMARY: L6 cells, read-out: Ratio IC50
QUANTITY_MEASURED: selectivity ratio

>>> test_result("O=[N+]([O-])c1ccc(C(c2ccn(-c3ccc([N+](=O)[O-])cc3)c2)n2ccnc2)cc1 (stereo not given)")
9
>>> test_result("CCc1ccc(-c2c[nH]cc2C(c2ccc(Cl)cc2Cl)n2ccnc2)cc1 (stereo not given)")
3
>>> test_result("N#Cc1ccc(C(c2ccn(-c3ccc(C#N)cc3)c2)n2ccnc2)cc1 (stereo not given)")
2
>>> test_result("Clc1ccc(-c2cc(C(c3ccc(Cl)cc3)n3ccnc3)c[nH]2)cc1 (stereo not given)")
2
>>> test_result("Clc1ccc(C(c2c[nH]cc2-c2ccc(Cl)c3ccccc23)n2ccnc2)c(Cl)c1 (stereo not given)")
1
>>> test_result("Cn1cc(C(c2ccc(Cl)cc2)n2ccnc2)cc1-c1ccc(Cl)cc1 (stereo not given)")
2
>>> test_result("O=[N+]([O-])c1ccc(-n2ccc(C(c3ccccc3)n3ccnc3)c2)cc1 (stereo not given)")
2
>>> test_result("Clc1ccc(C(c2c[nH]cc2-c2ccc3ccccc3c2)n2ccnc2)c(Cl)c1 (stereo not given)")
1
>>> test_result("N#Cc1ccc(C(c2ccn(-c3ccc(Cl)cc3)c2)n2ccnc2)cc1 (stereo not given)")
1
>>> test_result("Cc1ccc(-c2c[nH]cc2C(c2ccc(Cl)cc2Cl)n2ccnc2)cc1 (stereo not given)")
3
>>> test_result("O=[N+]([O-])c1ccc(-n2ccc(C(c3ccc(Cl)cc3)n3ccnc3)c2)cc1 (stereo not given)")
3
>>> test_result("Clc1ccc(-c2c[nH]cc2[C@@H](c2ccc(Cl)cc2Cl)n2ccnc2)cc1")
1
>>> test_result("CC(C)c1ccc(-c2c[nH]cc2C(c2ccc(Cl)cc2Cl)n2ccnc2)cc1 (stereo not given)")
2
>>> test_result("Clc1ccc(C(c2c[nH]cc2-c2ccc(Cl)cc2-c2cccs2)n2ccnc2)c(Cl)c1 (stereo not given)")
2
>>> test_result("FC(F)(F)c1ccc(-n2ccc(C(c3ccc(Cl)cc3)n3ccnc3)c2)cc1 (stereo not given)")
2

====

- PROTOCOL: Cytotoxicity against rat L6 cels assessed as reduction in cell viability after 72 hrs by Alamar Blue dye-based fluorometric analysis
- CONDITION_SUMMARY: L6 cells
CC50 at 72 h strictly under 60 µM means 1 (yes); at 60 µM or over means 0 (no).

>>> qualitative_label("Clc1ccc(C(c2c[nH]cc2-c2ccc(Cl)cc2-c2cccs2)n2ccnc2)c(Cl)c1 (configuration not stated)")
"1 (yes)"
>>> qualitative_label("O=[N+]([O-])c1ccc(-n2ccc(C(c3ccc(Cl)cc3)n3ccnc3)c2)cc1 (configuration not stated)")
"0 (no)"
>>> qualitative_label("Clc1ccc(C(c2c[nH]cc2-c2ccc(Cl)cc2-c2ccccc2)n2ccnc2)cc1 (configuration not stated)")
"1 (yes)"
>>> qualitative_label("CS(=O)(=O)c1ccc(-c2c[nH]cc2C(c2ccc(Cl)cc2Cl)n2ccnc2)cc1 (configuration not stated)")
"0 (no)"
>>> qualitative_label("C=CCn1cc(C(c2ccc(Cl)cc2)n2ccnc2)cc1-c1ccc(Cl)cc1 (configuration not stated)")
"1 (yes)"
>>> qualitative_label("Clc1ccc(C(c2c[nH]cc2-c2ccc3ccccc3c2)n2ccnc2)c(Cl)c1 (configuration not stated)")
"1 (yes)"

====

- SYSTEM_TESTED: Cytochrome P450 2D6 (Homo sapiens, UniProt P10635)
- Sequence (P10635 whole entry): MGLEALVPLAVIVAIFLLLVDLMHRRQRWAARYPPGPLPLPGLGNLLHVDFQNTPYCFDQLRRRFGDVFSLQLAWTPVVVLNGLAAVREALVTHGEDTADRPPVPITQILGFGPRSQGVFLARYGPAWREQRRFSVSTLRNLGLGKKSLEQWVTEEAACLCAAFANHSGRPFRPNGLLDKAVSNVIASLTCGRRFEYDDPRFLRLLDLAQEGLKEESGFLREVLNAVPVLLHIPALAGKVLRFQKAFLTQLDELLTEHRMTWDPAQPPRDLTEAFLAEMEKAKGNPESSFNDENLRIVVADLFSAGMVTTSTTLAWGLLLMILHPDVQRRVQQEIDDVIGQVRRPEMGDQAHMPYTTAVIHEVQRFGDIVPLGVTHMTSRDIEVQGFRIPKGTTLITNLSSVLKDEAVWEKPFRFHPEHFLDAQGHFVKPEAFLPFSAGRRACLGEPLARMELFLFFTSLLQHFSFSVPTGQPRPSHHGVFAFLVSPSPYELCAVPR
- PROTOCOL: Inhibition of human CYP2D6 in presence of NADPH by luciferase reporter gene assay
pIC50: −log10 of the molar value.
Reported pIC50 is given for each of the following molecules.
QUANTITY_MEASURED: pIC50

>>> test_result("Clc1ccc(-c2c[nH]cc2C(c2ccc(Cl)cc2Cl)n2ccnc2)cc1 (racemic)")
5.89
>>> test_result("Cn1cc(C(c2ccc(Cl)cc2)n2ccnc2)cc1-c1ccc(Cl)cc1 (centres undefined)")
5.52
>>> test_result("Clc1ccc(-c2cc(C(c3ccc(Cl)cc3)n3ccnc3)c[nH]2)cc1 (centres undefined)")
5.40
>>> test_result("C=CCn1cc(C(c2ccc(Cl)cc2)n2ccnc2)cc1-c1ccc(Cl)cc1 (centres undefined)")
5.70

====

- System: Trypanosoma cruzi
- PROTOCOL: Antiprotozoal activity against Trypanosoma cruzi Tulahuen C2C4 amastigotes infected in rat L6 cells after 96 hrs by inverted microscopic analysis
- Type: functional, organism-based
- CONDITION_SUMMARY: Tulahuen C2C4, L6, 96 h
pIC50: −log10 of the molar value.
QUANTITY_MEASURED: pIC50

>>> test_result("Clc1ccc(-c2cc(C(c3ccc(Cl)cc3)n3ccnc3)c[nH]2)cc1 (stereo not drawn)")
8.52
>>> test_result("Clc1ccc(C(c2c[nH]cc2-c2ccc(Cl)cc2-n2cccc2)n2ccnc2)c(Cl)c1 (stereo not drawn)")
4.92
>>> test_result("O=[N+]([O-])c1ccc(C(c2ccn(-c3ccc([N+](=O)[O-])cc3)c2)n2ccnc2)cc1 (stereo not drawn)")
5.44

====

Reported pIC50 is given for each of the following molecules.
- Test system: Plasmodium falciparum
- PROTOCOL: Antiprotozoal activity against erythrocytic stage of Plasmodium falciparum K1 after 48 hrs by [3H]- hypoxanthine incorporation assay
- Format: functional, organism-based
pIC50: −log10 of the molar value.
QUANTITY_MEASURED: pIC50

>>> test_result("C=CCn1cc(C(c2ccc(Cl)cc2)n2ccnc2)cc1-c1ccc(Cl)cc1 (stereo not drawn)")
6.20
>>> test_result("FC(F)(F)c1ccc(-n2ccc(C(c3ccc(Cl)cc3)n3ccnc3)c2)cc1 (stereo not drawn)")
5.74
>>> test_result("Clc1ccc(-c2c[nH]cc2[C@@H](c2ccc(Cl)cc2Cl)n2ccnc2)cc1")
6.96
